Record form. Attribute: AUC. Fill in for each entry.
Experiment: Rat pharmacokinetics (po and iv) and bioavailability
Format: in vivo
Conditions: in vivo, po, 30 mg/kg, 30 mpk (Table 11)
Experimental: For this purpose, formulations suitable for peroral administration (po) and intravenous injection (iv) for each compound were first selected to ensure stable PK progression. The formulation was selected under the condition of maintaining a clear solution for more than 1 hour at 10 and 30 mpk doses based on po, and the iv formulation was modified when iv use was not possible based on po (Table 8). […]
Give bare numbers, in ng·h/mL.

# MOLECULE, DISPLAY UNIT, RESULT NUMBER
rows = [
    ("COc1ccc(CCN(Cc2ccc(N3CC[C@H](C(=O)O)C3)cc2)c2nc3c(F)c(F)cc(F)c3s2)cc1", "ng·h/mL", 55300),
]

Please give AUC for each item listed below.
1. COc1ccc(CCN(Cc2ccc(C#CC(=O)O)cc2)c2nc3cccc(F)c3s2)cc1 [Compound C0001, reference compound]
2. COc1ccc(CCN(Cc2ccc(N3CC[C@H](C(=O)O)C3)cc2)c2nc3cccc(F)c3s2)cc1

Result ::
[25600, 53000]

###

Record form. Attribute: inhibition at 10 µM. Fill in for each entry.
Target: KARS1 and 37LR (Homo sapiens)
Construct: KARS1 (1-207aa)
Sequence (Q15046 1-207): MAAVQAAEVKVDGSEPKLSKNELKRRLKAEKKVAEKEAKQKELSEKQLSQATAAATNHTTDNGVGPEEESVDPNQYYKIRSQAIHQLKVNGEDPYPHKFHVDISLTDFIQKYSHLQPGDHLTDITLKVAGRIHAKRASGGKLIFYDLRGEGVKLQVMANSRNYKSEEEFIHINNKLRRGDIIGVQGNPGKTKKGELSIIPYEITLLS
Test: Cell-free ELISA of KARS1 and 37LR (laminin receptor) binding
Settings: 10 µM compound, 1 hour, plate coated with KARS1 (1-207aa), LRF

Answered cases to consult:
# COMPOUND, READOUT KIND, RESULT
rows = [
    ("COc1ccc(CCN(Cc2ccc(-c3ccccc3)cc2)c2nc3cccnc3s2)cc1", "inhibition at 10 µM", "-6%"),
    ("COc1ccc(CCN(Cc2nc3ccc(B(O)O)cc3n2C)c2nc3cccc(F)c3s2)cc1", "inhibition at 10 µM", "8.9%"),
]

Please give inhibition at 10 µM for each item listed below.
1. COc1ccc(CCN(Cc2ccc(C#CC(=O)O)cc2)c2ncc3ccn(C)c3n2)cc1
2. COc1ccc(CCN(Cc2ccc(N3CC[C@@H](C(=O)O)C3)cc2)c2nc3cccc(F)c3s2)cc1
3. O=C(O)[C@@H]1CCN(c2cccc(CN(CCc3ccc(OC(F)(F)F)cc3)c3nc4cccc(F)c4s3)c2)C1
4. COc1ccc(CCN(Cc2ccc(N3CC(C(=O)O)C3)cc2)c2nc3cccc(F)c3s2)cc1

Result ::
1. 57.9%
2. 65.9%
3. 66.7%
4. 37.5%

###

Assay: Microsomal metabolic stability, human
Type: in vitro ADME
Procedure: Metabolic stability (MS) evaluation was conducted for the selected compounds by measuring in vitro stability in two species, rat and human, according to the microsomal stability measurement method. As a result, it was identified that MS varied depending on the transformation of parts A, B, and C.
READOUT KIND: Metabolic stability (% remaining at 30 min) Human (%)
One number for each entry, in %.

Answered cases to consult:
# COMPOUND, DISPLAY UNIT, RESULT NUMBER
data = [
    ("COc1ccc(CCN(Cc2ccc(N3CC[C@H](C(=O)O)C3)cc2)c2nc3cccc(F)c3s2)cc1", "%", 66),
    ("COc1ccc(CCN(Cc2ccc(N3CC[C@H](C(=O)O)C3)cc2)c2nc3c(F)c(F)cc(F)c3s2)cc1", "%", 85),
]

Next:
Query :: Item under review: COc1ccc(CCN(c2nc3cccc(F)c3s2)C(C)c2ccc(N3CC[C@H](C(=O)O)C3)cc2)cc1 (stereo partly drawn) . Reported Metabolic stability (% remaining at 30 min) Human?
Result :: 76

###

Test: Rat pharmacokinetics (po and iv) and bioavailability
Assay type: in vivo
Settings: in vivo, 30 mg/kg, po, 30 mpk
READOUT KIND: Cmax (ng/mL)
One number for each entry, in ng/mL.

Answered cases to consult:
# COMPOUND, Cmax [ng/mL]
data = [
    ("COc1ccc(CCN(Cc2ccc(N3CC[C@H](C(=O)O)C3)cc2)c2nc3c(F)c(F)cc(F)c3s2)cc1", 12800),
    ("COc1ccc(CCN(c2nc3cccc(F)c3s2)C(C)c2cccc(N3CC[C@@H](C(=O)O)C3)c2)cc1 (stereo partly shown)", 6470),
    ("COc1ccc(CCN(Cc2ccc(C#CC(=O)O)cc2)c2nc3cccc(F)c3s2)cc1 [Compound C0001, reference compound]", 4720),
]

Next:
Query :: Item under review: `COc1ccc(CCN(Cc2ccc(N3CC[C@H](C(=O)O)C3)cc2)c2nc3cccc(F)c3s2)cc1` . Reported Cmax?
Result :: 14400

###

Assay: Rat pharmacokinetics (po and iv) and bioavailability
Type: in vivo
Details: in vivo, 10 mg/kg, po, 10 mpk
Record form. Attribute: Tmax. Fill in for each entry.
One number for each entry, in min.

Answered cases to consult:
# COMPOUND, RESULT NUMBER
data = [
    ("COc1ccc(CCN(Cc2ccc(N3CC[C@H](C(=O)O)C3)cc2)c2nc3cccc(F)c3s2)cc1", 60),
    ("COc1ccc(CCN(Cc2ccc(C#CC(=O)O)cc2)c2nc3cccc(F)c3s2)cc1 [Compound C0001, reference compound]", 30),
]

Please give Tmax for each item listed below.
1. COc1ccc(CCN(Cc2ccc(N3CC[C@H](C(=O)O)C3)cc2)c2nc3c(F)c(F)cc(F)c3s2)cc1
2. COc1ccc(CCN(c2nc3cccc(F)c3s2)C(C)c2cccc(N3CC[C@@H](C(=O)O)C3)c2)cc1 (some centres unmarked)
3. COc1ccc(CCN(c2nc3cccc(F)c3s2)C(C)c2ccc(N3CC[C@H](C(=O)O)C3)cc2)cc1 (some centres unmarked)

Result ::
79.8
49.8
40.2

###

Experiment: Rat pharmacokinetics (po and iv) and bioavailability
Format: in vivo
Details: in vivo, 10 mg/kg, po, 10 mpk
READOUT KIND: half-life (h)
Numbers only, in h.

Answered cases to consult:
# MOLECULE, half-life, h
measured = [
    ("COc1ccc(CCN(c2nc3cccc(F)c3s2)C(C)c2ccc(N3CC[C@H](C(=O)O)C3)cc2)cc1 (some centres unmarked)", 1.32),
    ("COc1ccc(CCN(Cc2ccc(C#CC(=O)O)cc2)c2nc3cccc(F)c3s2)cc1 [Compound C0001, reference compound]", 1.83),
    ("COc1ccc(CCN(Cc2ccc(N3CC[C@H](C(=O)O)C3)cc2)c2nc3c(F)c(F)cc(F)c3s2)cc1", 0.95),
    ("COc1ccc(CCN(Cc2ccc(N3CC[C@H](C(=O)O)C3)cc2)c2nc3cccc(F)c3s2)cc1", 1.34),
]

Next:
Query :: Item under review: COc1ccc(CCN(c2nc3cccc(F)c3s2)C(C)c2cccc(N3CC[C@@H](C(=O)O)C3)c2)cc1 (some centres unmarked) . Reported half-life?
Result :: 1.96

###

Experiment: Microsomal metabolic stability, human
Assay type: in vitro ADME
READOUT KIND: Metabolic stability (% remaining at 30 min) Human (%)
Answers are plain numbers, in %.

# MOLECULE, DISPLAY UNIT, RESULT NUMBER
data = [
    ("COc1ccc(CCN(Cc2ccc(C#CC(=O)O)cc2)c2nc3cccc(F)c3s2)cc1 [Compound C0001, reference compound]", "%", 56),
]

Please give Metabolic stability (% remaining at 30 min) Human for each item listed below.
1. COc1ccc(CCN(c2nc3cccc(F)c3s2)C(C)c2cccc(N3CC[C@@H](C(=O)O)C3)c2)cc1 (stereo partly shown) [Compound 41]
2. COc1ccc(CCN(Cc2cccc(N3CCC(C(=O)O)C3)c2)c2nc3cccc(F)c3s2)cc1 (stereo not shown) [Compound 17]
3. COc1ccc(CCN(Cc2ccc(N3CCC(C(=O)O)C3)cc2)c2nc3cccc(F)c3s2)cc1 (stereo not shown) [Compound 13]

Result ::
1. 51
2. 58
3. 74

###

Record form. Attribute: AUC. Fill in for each entry.
Assay: Rat pharmacokinetics (po and iv) and bioavailability
Type: in vivo
Conditions: in vivo, po, 10 mg/kg, 10 mpk
Experimental: For this purpose, formulations suitable for peroral administration (po) and intravenous injection (iv) for each compound were first selected to ensure stable PK progression. The formulation was selected under the condition of maintaining a clear solution for more than 1 hour at 10 and 30 mpk doses based on po, and the iv formulation was modified when iv use was not possible based on po (Table 8). […]

# COMPOUND, AUC
records = [
    ("COc1ccc(CCN(Cc2ccc(C#CC(=O)O)cc2)c2nc3cccc(F)c3s2)cc1 [Compound C0001, reference compound]", "> 5000 ng·h/mL"),
]

Please give AUC for each item listed below.
1. COc1ccc(CCN(Cc2ccc(N3CC[C@H](C(=O)O)C3)cc2)c2nc3c(F)c(F)cc(F)c3s2)cc1
2. COc1ccc(CCN(Cc2ccc(N3CC[C@H](C(=O)O)C3)cc2)c2nc3cccc(F)c3s2)cc1

Result ::
> 5000 ng·h/mL
> 5000 ng·h/mL

Query :: Item under review: COc1ccc(CCN(c2nc3cccc(F)c3s2)C(C)c2ccc(N3CC[C@H](C(=O)O)C3)cc2)cc1 (stereo partly shown) . Reported AUC?
Result :: 1420 ng·h/mL

The reported numbers originate from patent EP4656630A1.
